Target: pooled human IgG (human IgG1,2,3 and 4)
EXPERIMENTAL ENDPOINT: Enzyme activity endpoint: Fab′2 (ng/µL)
Give bare numbers, in ng/µL.

Here's what some known entries look like.
PRT-683 (protein) MQITSVWTKGVTPLTPEQFRYNNEDVIHAPYLAHQGWYDITKAFNGKDNLLCGAATAGNMLHWWFDQNKEEIEAYLKKHPEKQKIIFNNQELFDLRKAINTKDSQTNSQLFNYFRDKAFPNLSARQLGVMPDLVLDMFINGYYLNVFKTQSTDVNRPYQDKDKRGGIFDHVFTRGDQTTLLTARHDLKNKTLNDISQIIKQELQEGKALALSHTYANVSISHVINLWGADFNAEGNLEAIYVTDSDANASIGMKKYFVGKNAHGHVAISAKKIEGENIGAQVLGLFTLSSGKEIWQKLSLEHHHHHH = 1100
PRT-674 (protein) MQITSVWTKGVTPPTMEQFRYNNYDVFHAPYLPGQGWYDITKAFDGGDNLLCGAATAGNMLHWWFDQNKEEIEAYLSKYPEKQKIIFNNQELFDLRKAINSKDSQTNSELFNYFRDKAFGNLSARQKGVMPDLVLDMFINGYYLNLNKTQSTDVNRPYQDPDKRGGIFDDVFKEGDQTKLLTARHDLSNGGLDDISTIIKQELQSGRALALSHTYANVSYSHVINLWGADFDAEGNLEAIYVTDSDDDQSIGMKKYKVGKNASGHVRISAKKIEDENIGAQVLGLFTLSLGKEIWQKLSLEHHHHHH = 462
PRT-638 (protein) MQITSVWTKGVTPLTPEQFRYNNEDVIHAPYLAHQGWYDITKLNDTGDGLLCGAATAGNMLHWWFDQNKTEIEAYLSKHPEKQKIIFNNQELFDLKAAIDTKDSQTNSQLFNYFRDKAFPNLSARQKGVMPDLVLDMFINGYYLNVFKTQSTDVNRPYQDKDKRGGIFDAVFTRGDQTTLLTARHDLKNKGLNDISTIIKQELTEGRALALSHTYANVSISHVINLWGADFNAEGNLEAIYVTDSNAGNGIGMKKYFVGINAHGHVAISAKKIEGENIGAQVLGLFTLSSGKDIWQKLSLEHHHHHH = 550

Q: Reported Enzyme activity endpoint: Fab′2, protein PRT-664 (protein) MQITSVWTKGVTPLTPEQFRYNNEDVIHAPYLPHQGWYDITKAFDGKDNLLCGAATAGNMLHWWFDQNKTEIEAYLSKHPEKQKIIFNNQELFDLRAAINTKDSQTNSALFNYFRDKAFPNLSARQLGVMPDLVLDMFINGYYLNVFKTQSTDVNRPYQDKDKRGGIFDAVFTRGDQTTLLTARHDLKNKGLNDISTLIKQELTEGKALALSHTYANVSISHVINLWGADFNAEGNLEAIYVTDSDSDASIGMKKYYVGINASGHVAISAKKIEGENIGAQVLGLFTLSSGKDIWQKLSLEHHHHHH : ____
Result: 703
